Record: compiled IC50 on PIK3CA (human) (UniProt P42336) from multiple reports.

Reference set, count: 2
[
  {
    "chemical-structure": "CC(C)Cn1c(N2CCN(C=O)[C@@H](C)C2)nc2c(N3CCOCC3)nc(-c3cnc(N)nc3)nc21",
    "IC50": "< 0.01 µM"
  },
  {
    "chemical-structure": "Cc1nc2ccc(-c3ccc4c(c3)CN(C(=O)N3CCc5ccccc5C3)CCO4)cc2[nH]1",
    "IC50": "0.5 to 1 µM"
  }
]

Need IC50 for each of these compounds.
1. Cc1cccc2cc([C@H](C)Nc3ncnc4[nH]cnc34)nc(OCC3CCN(C)CC3)c12
2. Cc1ccccc1-n1c(Cn2nc(-c3ccc(O)c(Cl)c3)c3c(N)ncnc32)cc2cccc(C)c2c1=O
3. Cc1nc2ccc(-c3ccc4c(c3)CN(C(=O)N3CCCc5ccccc53)CCO4)cc2[nH]1

Reply:
< 10 µM
> 10 µM
1 to 3 µM

The following compounds each have a reported value; give each one's IC50.
1. C[C@H](Nc1ncnc2cccnc12)c1cc2cccc(Cl)c2c(C(=O)NC2CCOCC2)n1
2. Cc1ccccc1-n1c(Cn2nc(Br)c3c(N)ncnc32)cc2cccc(C)c2c1=O
3. O=c1cc(Oc2ccc3c(c2)OCO3)c2ccccc2[nH]1

Reply:
["> 10 µM", "> 10 µM", "> 10 µM"]

====

pIC50: −log10 of the molar value.
For reference, the following pIC50 results for PIK3CA (human) were taken from various sources.

Record excerpt, results attached:
[
  {
    "compound": "CC(=O)N1CCN(c2nc3c(N4CCOCC4)nc(-c4cnc(N)nc4)nc3n2CC2CC2)C[C@@H]1C",
    "observable": "pIC50",
    "experimental-result": "> 8.00"
  },
  {
    "compound": "O=S(=O)(Nc1cc(-c2ccc3nccc(-c4ccc(CN5CCOCC5)cc4)c3c2)cnc1Cl)c1ccc(F)cc1F",
    "observable": "pIC50",
    "experimental-result": 8.96
  },
  {
    "compound": "CN(C)C(=O)C(=O)N1CCN(c2nc3c(N4CCOCC4)nc(-c4cnc(N)nc4)nc3n2CC(F)(F)F)CC1",
    "observable": "pIC50",
    "experimental-result": "> 8.00"
  },
  {
    "compound": "C[C@H](Nc1ncnc2ccnn12)c1cc2cccc(Cl)c2c(=O)n1-c1ccccc1",
    "observable": "pIC50",
    "experimental-result": "5.00 to 6.00"
  },
  {
    "compound": "CCC(Nc1ncnc2[nH]cnc12)c1cc2ccccc2c(=O)n1-c1ccccc1 (stereo not shown)",
    "observable": "pIC50",
    "experimental-result": "< 5.00"
  }
]

Dear reader, for each entry below, please note its pIC50.
1. Cc1cccc2cc(Cn3nc(-c4ccc5nc(N)cn5c4)c4c(N)ncnc43)n(-c3ccccc3)c(=O)c12
2. C[C@H](Nc1ccc2c(c1)OCCn1cc(N3CC(F)(F)COC3=O)nc1-2)C(N)=O
3. Nc1nc2cc(-c3ccc4ncc(-c5cccnc5)n4c3)ccc2o1
4. COc1ncc(-c2ccc3nccc(-c4ccc(CN5CCOCC5)cc4)c3c2)cc1NS(=O)(=O)c1ccc(F)cc1
5. CS(=O)(=O)Nc1cccc(-c2ccc3ncc(C(=O)N4CCOCC4)n3c2)c1

Reply:
["< 5.00", 8.03, "> 7.00", 8.80, "< 5.00"]

# batch size: 8; output pIC50 per entry
1. CN1CCCN(C(=O)c2cnc3ccc(-c4ccc5oc(N)nc5c4)cn23)CC1
2. CN(CCO)[C@H]1CC[C@H](CNc2nc(N3CCOCC3)cc(-n3c(C(F)F)nc4ccccc43)n2)CC1
3. O=c1cc(Oc2cccc(NCc3cccs3)c2)c2ccccc2[nH]1
4. Cc1cc(-c2cccc3cc([C@H](C)Nc4ncnc5cccnc45)n(-c4ccccc4)c(=O)c23)cnc1C
5. COc1ncc(-c2ccc3nccc(-c4ccc(CN(C)C)cc4)c3c2)cc1NS(=O)(=O)c1ccc(F)cc1
6. CN1CCN(C(=O)C2CCN(c3ccnc4c3c(/C=C3\Oc5ccc(NC(=O)Nc6cccnc6)cc5C3=O)cn4C)CC2)CC1
7. CNC(=O)C(C)Cn1cnc2ccc(-c3cnc(OC)c(NS(=O)(=O)c4ccc(F)cc4C)c3)cc2c1=O (single isomer, unassigned)
8. CC(C)Cn1c(N2CCN(C(=O)C[C@H](C)O)[C@@H](C)C2)nc2c(N3CCOCC3)nc(-c3cnc(N)nc3)nc21

Reply:
1. > 6.00
2. < 5.52
3. < 5.00
4. 5.00 to 6.00
5. 8.68
6. 5.34
7. 8.15
8. > 8.00

====

Endpoint summary: IC50, system: PIK3CA (human) (UniProt P42336), multiple sources combined.

A selection of reference data follows.
[
  {
    "molecule": "Cc1csc2nc(Cn3nc(-c4cc(O)cc(F)c4)c4c(N)ncnc43)n(-c3ccccc3Cl)c(=O)c12",
    "test-system": "PIK3CA (human) (UniProt P42336)",
    "IC50": "< 10000 nM"
  },
  {
    "molecule": "Cc1ncc(-c2cccc3cc([C@H](C)Nc4ncnc5scnc45)n(-c4ccccc4)c(=O)c23)cn1",
    "test-system": "PIK3CA (human) (UniProt P42336)",
    "IC50": "1000 to 10000 nM"
  },
  {
    "molecule": "Cc1nc2ccc(-c3ccc4c(c3)CN(C(=O)N3CCN(c5cnccn5)CC3)CCO4)cc2[nH]1",
    "test-system": "PIK3CA (human) (UniProt P42336)",
    "IC50": "200 to 500 nM"
  }
]

Query: Dear colleague, please send me the reported IC50 for CNC(=O)Nc1ccc2c(c1)C(=O)/C(=C/c1cn(C)c3nccc(N4CC5CCC4CO5)c13)O2 (stereo not shown) when you can.
Reply: 128 nM

====

Field: IC50. System: PIK3CA (human). Provenance: assorted publications.

The following compounds have reported results that may help.
[
  {
    "chemical-structure": "Cc1cccc2cc(Cn3nc(-c4cccc(O)c4)c4c(N)ncnc43)n(-c3ccccc3F)c(=O)c12",
    "test-system": "PIK3CA (human)",
    "experimental-result": "> 10 µM"
  },
  {
    "chemical-structure": "C[C@H](Nc1ncnc2[nH]cnc12)c1cc2cccc(Cl)c2c(C(=O)N(C)c2ccccc2)n1",
    "test-system": "PIK3CA (human)",
    "experimental-result": "> 10 µM"
  },
  {
    "chemical-structure": "FC(F)c1nc2ccccc2n1-c1cc(N2CCOCC2)nc(NC[C@H]2CC[C@H](N3CCOCC3)CC2)n1",
    "test-system": "PIK3CA (human)",
    "experimental-result": "2.4 µM"
  },
  {
    "chemical-structure": "COC(=O)Nc1nc2ncc(-c3ccc4c(c3)CN(C(=O)N3CCC(C#N)CC3)CCO4)cc2[nH]1",
    "test-system": "PIK3CA (human)",
    "experimental-result": "0.2 to 0.5 µM"
  },
  {
    "chemical-structure": "C[C@H]1CN(C(=O)C2CN(c3cnc4ccc(-c5ccc6oc(N)nc6c5)cc4n3)C2)CCN1",
    "test-system": "PIK3CA (human)",
    "experimental-result": "< 0.1 µM"
  }
]

Each compound below has a reported value. Please supply its IC50.
1. Cc1cccc2cc(Cn3nc(-c4ccc5sc(N)nc5c4)c4c(N)ncnc43)n(-c3ccccc3)c(=O)c12
2. CN1CCN(CCNC(=O)Nc2ccc3c(c2)C(=O)/C(=C/c2cn(C)c4nccc(N5CC6CCC(C5)O6)c24)O3)CC1

Reply:
1. < 1 µM
2. 0.237 µM

====

pIC50: −log10 of the molar value.
// cross-study collection: pIC50 for PIK3CA (human)

Reference set, count: 3
[
  {
    "chemical-structure": "O=C(c1cnc2ccc(-c3cccc(NS(=O)(=O)c4ccccc4)c3)cn12)N1CCOCC1",
    "pIC50": "> 5.00"
  },
  {
    "chemical-structure": "Nc1ncc(-c2nc(N3CCOCC3)c3ncc(-c4cccc(NC(=O)c5cccnc5)c4)cc3n2)cn1",
    "pIC50": "> 7.30"
  },
  {
    "chemical-structure": "Cn1cc(-c2cnc3ccc(-c4ccc5oc(N)nc5c4)cc3n2)cn1",
    "pIC50": "> 7.00"
  }
]

Value sought for every listed compound: pIC50.
1. CNS(=O)(=O)c1ccc(-c2ccnc3c2c(/C=C2\Oc4cc(O)cc(O)c4C2=O)cn3C)cc1
2. COc1ncc(-c2ccc3ncc(C(=O)N4CCOCC4)n3c2)cc1NS(=O)(=O)c1ccc(F)cc1

Reply:
1: 8.70; 2: > 7.00

For each of the compounds below, note its pIC50.
1. Cc1cccc2cc(Cn3nc(C(C)(C)O)c4c(N)ncnc43)n(-c3ccccc3)c(=O)c12
2. Cn1cc(-c2cccc(Oc3cc(=O)[nH]c4ccccc34)c2)cn1
3. COc1ncc(-c2cccc3cc([C@H](C)NC(=O)c4c(N)nn5cccnc45)n(-c4ccccc4)c(=O)c23)s1
4. CC(=O)NC[C@@H]1CCN(C(=O)Nc2nc3c(s2)-c2nc(C(C)(C)C)ncc2CC3)[C@@H]1C(N)=O
5. CCOc1cc(-c2ccc3ncc4nnc(-c5ccc(C(C)(C)C#N)cc5)n4c3c2)cnc1N
6. Nc1nc2cc(-c3ccc4ncc(C(=O)N5CC(O)C5)n4c3)ccc2o1

Reply:
1. < 5.00
2. < 5.00
3. < 5.00
4. 7.92
5. > 7.00
6. > 7.00

Required: pIC50, one value per compound below.
1. Cn1cncc1CNC(=O)Nc1ccc2c(c1)C(=O)/C(=C/c1cn(C)c3nccc(N4CC5CCC(C4)O5)c13)O2
2. O=c1cc(Oc2cccc(-c3cc[nH]n3)c2)c2ccccc2[nH]1
3. CS(=O)(=O)c1ccc(-c2nnc3cnc4ccc(-c5cnc(N)c(C(F)(F)F)c5)cc4n23)cc1

Reply:
1. 5.94
2. 5.18
3. > 7.00

Give pIC50 for each of the items listed below.
1. CC(=O)c1ccc(N2CCN(C(=O)N3CCOc4ccc(-c5ccc6nc(C)[nH]c6c5)cc4C3)CC2)cc1
2. C[C@H](O)C(=O)N1CCN(Cc2csc3c(-c4cccc5[nH]ncc45)nc(N4CCOCC4)nc23)CC1
3. CC(C)(C#N)c1ccc(-c2n[nH]c3cnc4ccc(-c5cccnc5)cc4c23)cc1
4. CC(=O)N[C@H]1CC[C@H](Nc2nc(N3CCOCC3)nc(-n3c(C(F)F)nc4ccccc43)n2)CC1
5. CC(C)(C)c1nc2c(s1)CCc1nc(NC(=O)N3CC[C@@H](CN4CCOCC4)[C@H]3C(N)=O)sc1-2

Reply:
1. 6.00 to 6.30
2. 7.12
3. > 8.00
4. 6.26
5. 7.62
